List of flexible substance values.
# run description: Drug-drug compatibility test under accelerated stability conditions
# Type: physicochemical
# conditions used: Acceleration 1 week; 40 ± 2°C/75 ± 5% relative humidity; HPLC

Consider the worked cases shown below.
>  <compound string>
CCCCC(=O)N(Cc1ccc(-c2ccccc2-c2nnn[nH]2)cc1)[C@H](C(=O)O)C(C)C

>  <flexible substance>
0.1 or more

$$$$
>  <compound string>
Cc1ccc([C@@H]2O[C@H](CO)[C@@H](O)[C@H](O)[C@H]2O)cc1Cc1ccc(-c2ccc(F)cc2)s1

>  <flexible substance>
1.0 or less

$$$$
>  <compound string>
OC[C@H]1O[C@@H](c2ccc(Cl)c(Cc3ccc(O[C@H]4CCOC4)cc3)c2)[C@H](O)[C@@H](O)[C@@H]1O

>  <flexible substance>
1.0 or less

$$$$

// below: flexible substance requested for another molecule
// flexible substance value for CCCc1nc2c(C)cc(-c3nc4ccccc4n3C)cc2n1Cc1ccc(-c2ccccc2C(=O)O)cc1 : 0.1 or less

====

# run description: Drug-drug compatibility test under accelerated stability conditions
# Type: physicochemical
# conditions used: Initial; color, clumping, etc.
# Method: Specifically, after storing a mixture of ARB and SGLT-2 inhibitor for 2 weeks under accelerated stability test conditions (40 ± 2°C/75 ± 5% relative humidity), changes in the contents of each ingredient and flexible substance and changes in properties (color, clumping, etc.) were analyzed. Olmesartan, Valsartan, and Telmisartan were used as ARBs, and Empagliflozin, Dapagliflozin (Dapagliflozin propanediol monohydrate), and Canagliflozin were used as SGLT-2 inhibitors.
test readout: property

>  <compound>
Cc1ccc([C@@H]2O[C@H](CO)[C@@H](O)[C@H](O)[C@H]2O)cc1Cc1ccc(-c2ccc(F)cc2)s1 [Com. Ex. 21, Canagliflozin]

>  <test readout>
property

>  <result>
suitable

$$$$
>  <compound>
OC[C@H]1O[C@@H](c2ccc(Cl)c(Cc3ccc(O[C@H]4CCOC4)cc3)c2)[C@H](O)[C@@H](O)[C@@H]1O [Com. Ex. 17, Empagliflozin]

>  <test readout>
property

>  <result>
suitable

$$$$
>  <compound>
CCCc1nc2c(C)cc(-c3nc4ccccc4n3C)cc2n1Cc1ccc(-c2ccccc2C(=O)O)cc1 [Com. Ex. 16, Telmisartan]

>  <test readout>
property

>  <result>
suitable

$$$$
>  <compound>
CCCCC(=O)N(Cc1ccc(-c2ccccc2-c2nnn[nH]2)cc1)[C@H](C(=O)O)C(C)C [Com. Ex. 20, Valsartan]

>  <test readout>
property

>  <result>
suitable

$$$$

The measured values listed here are drawn from patent EP4640223A1.
